Study System: motor domain of the human kinesin spindle protein KSP/Eg5 (Homo sapiens)
Construct: The motor domain of the human kinesin spindle protein KSP/Eg5
Sequence (P52732 18-359 limits assumed): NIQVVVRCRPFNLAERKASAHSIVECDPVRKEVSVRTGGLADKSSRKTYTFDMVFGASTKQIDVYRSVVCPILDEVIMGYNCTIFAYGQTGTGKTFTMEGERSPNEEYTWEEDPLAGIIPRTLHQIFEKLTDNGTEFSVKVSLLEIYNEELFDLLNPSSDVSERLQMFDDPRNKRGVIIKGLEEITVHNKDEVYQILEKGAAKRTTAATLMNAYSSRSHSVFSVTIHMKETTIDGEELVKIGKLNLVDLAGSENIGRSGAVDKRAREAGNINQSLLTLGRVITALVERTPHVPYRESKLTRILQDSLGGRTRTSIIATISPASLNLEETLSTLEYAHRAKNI
Test Summary: Inhibition of the kinesin spindle protein, ATPase activity (malachite green)
Condition Label: 10 nM KSP/Eg5 motor domain, microtubuli, ATP 500 μM, 2 h RT
Record form. Attribute: pIC50. Fill in for each entry.
Numbers only, as −log10 of the molar value.

- Compound: "CC(C)(C)[C@H](c1cc(-c2cc(F)ccc2F)cn1Cc1ccccc1)N(CCCN)C(=O)CO"
  pIC50: 8.97

Now for another entry.
-- ask State the measured pIC50 (motor domain of the human kinesin spindle protein KSP/Eg5 (Homo sapiens)) of CC(C)(C)[C@H](c1cc(-c2cc(F)ccc2F)cn1Cc1ccccc1)N(CCCN)C(=O)CSC[C@H](NC(=O)CCOCCOCCOCCOCCNC(=O)CNC(=O)C(CC(=O)O)SC[C@H](N)C(=O)O)C(=O)O (some centres unmarked)
-- reply 8.64
